test: viability loss in pontine glioma line – cell-based, SU-DIPG-XXV, MIPE5.0, CellTiter-Glo, qHTS, dose response (AID 1347065); settings: CellTiter-Glo ATP luminescence;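 also: cells exposed to compound for 48 hours before ATP readout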
Inconclusive results are not listed. Active and inactive are the calls of the source. The limit is not given here; nearly all actives have AC50 up to about 26 µM.
quantity.name: AC50

Here are 6 molecules together with their reported answers.
COc1cccc(OCCCN)c1-c1cc(Nc2cnc(C#N)cn2)n[nH]1	0.059 µM (active)
O=C(NO)c1cnc(N2C[C@H]3C[C@@H]2CN3c2cc(C(F)(F)F)ccn2)nc1	0.742 µM (active)
NC1=N[C@@]2(c3cc(NC(=O)c4ccc(F)cn4)ccc3F)COC[C@H]2CS1	inactive
CN1CCC(COc2cnc(-c3cccc(Cn4nc(-c5cccc(C#N)c5)ccc4=O)c3)nc2)CC1	26.3 µM (active)
CCCC1(CCC)CCC2(CCN(CCCN(CC)CC)C2)CC1	6.61 µM (active)
CN1CCCN(C(=O)c2cccc(-c3ccc(/C=C4/C(=O)Nc5ccc(Cl)cc54)o3)c2)CC1	10.5 µM (active)

Q: What does the record list as AC50 for O=C(c1ccc(F)cc1)N1CCC[C@H](c2nc(-c3ccc(F)cc3)no2)C1 ?
Result: inactive
